Target: T1, TIGIT (T cell immunoreceptor with Ig and ITIM domains) (human, UniProt Q495A1 22-141, limits assumed)
T1 construct: also called hTIGIT; human TIGIT
T1 sequence (looked up): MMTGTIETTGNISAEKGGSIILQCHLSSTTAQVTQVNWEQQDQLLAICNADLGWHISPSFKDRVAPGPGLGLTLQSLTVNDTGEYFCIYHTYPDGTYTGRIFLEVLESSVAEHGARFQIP
Test: SPR, VHH-V5-His
measurement_name: koff (s⁻¹)
All answers are understood in s⁻¹, so give the number only.

Example entries and their recorded answers appear below.
[
  {
    "binder": "TIGIT-29-01 VHH-V5-His (VHH, not shown: V5-His tag) VHH: EVQLVESGGGLVQAGGSLRLSCAASGRTFSNYAMGWFRQAPGKEREFVAAITWSGTRTDYADSVKGRFTISADNAKNTVYLQMNSLKPEDTAVYYCAAAAWTIYEYDYWGQGTQVTVSS",
    "measurement_name": "koff",
    "unit_abbrev": "s⁻¹",
    "number": 0.01
  },
  {
    "binder": "TIGIT-30-52 VHH-V5-His (VHH, not shown: V5-His tag) VHH: EVQLVESGGGLVQAGGSLRLSCAASGRTFSNYFMGWFRQAPGKERESVATVTWRDNITYYADSVKGRFTISADNAKNTVYLQMNSLKPEDTAVYYCASAGRWGQGTQVTVSS",
    "measurement_name": "koff",
    "unit_abbrev": "s⁻¹",
    "number": 0.1
  },
  {
    "binder": "TIGIT-29-10 VHH-V5-His (VHH, not shown: V5-His tag) VHH: EVQLVESGGGLVQAGGSLRLSCAASGRTFSNYGMGWFRQAPGKEREFVSGISGSGGRTSYADSVKGRFTISADNAKNTVYLQMNSLKPEDTAVYYCAANLWYPVDRLNTGFNYWGQGTQVTVSS",
    "measurement_name": "koff",
    "unit_abbrev": "s⁻¹",
    "number": 0.003
  }
]

With those in mind, consider the next binder.
Param item = TIGIT-29-33 VHH-V5-His (VHH, not shown: V5-His tag) VHH: EVQLVESGGGLVQAGGSLRLSCAASGFIFSTYAMGWFRQAPGKERELVSAITRSGITTYYADSVKGRFTISADNAKNTVYLQMNSLKPEDTAVYYCAAAAWTIYEYDYWGQGTQVTVSS ; retrieve measured koff.
0.04
